- Assay summary: Plasma pharmacokinetics of lesogaberan during 24-h dosing
- Format: in vivo, human
- Settings: human, plasma, oral, 240 mg, evening dose, plasma, patients; read-out: C max evening, geometric mean
- Experimental: Blood samples were taken 1 h before the first administration of each dose, and at regular intervals during the 24-h period after the first administration of each dose, to assess the concentration of lesogaberan in plasma over time. […]
Measurement name: Cmax (µM)
Answers are plain numbers, in µM.

Query: GET /values?readout=Cmax&item= NC[C@@H](F)C[PH](=O)O [lesogaberan]
Reply: 4.18

----------
- Assay summary: Plasma pharmacokinetics of lesogaberan during 24-h dosing
- Type: in vivo, human
- Settings: human, plasma, oral, 30 mg, evening dose, plasma, patients; read-out: t max evening, geometric mean
Measurement name: Tmax (h)
Give bare numbers, in h.

Query: GET /values?readout=Tmax&item= NC[C@@H](F)C[PH](=O)O [lesogaberan]
Reply: 2.2

----------
- Assay summary: Plasma pharmacokinetics of lesogaberan during 24-h dosing
- Format: in vivo, human
- Settings: human, plasma, oral, 90 mg, morning dose, plasma, patients; read-out: t max morning, geometric mean
Measurement name: Tmax (h)
Give bare numbers, in h.

Query: GET /values?readout=Tmax&item= NC[C@@H](F)C[PH](=O)O
Reply: 1.7

----------
- Assay summary: Plasma pharmacokinetics of lesogaberan during 24-h dosing
- Format: in vivo, human
- Settings: human, oral; 120 mg twice in 24 h, modified-release capsules, plasma, patients; read-out: AUC (0–24 h), geometric mean
Measurement name: AUC(0-t) (µM·h)
One number for each entry, in µM·h.

Query: GET /values?readout=AUC(0-t)&item= NC[C@@H](F)C[PH](=O)O [lesogaberan]
Reply: 22.2

----------
- Assay summary: Plasma pharmacokinetics of lesogaberan during 24-h dosing
- Assay type: in vivo, human
- Settings: human, oral; 90 mg twice in 24 h, modified-release capsules, plasma, patients; read-out: AUC (0–24 h), geometric mean
Measurement name: AUC(0-t) (µM·h)
Numbers only, in µM·h.

Query: GET /values?readout=AUC(0-t)&item= NC[C@@H](F)C[PH](=O)O [lesogaberan]
Reply: 17.3
